System under test: Histamine H3 receptor (Homo sapiens, UniProt Q9Y5N1)
Sequence (Q9Y5N1 whole entry): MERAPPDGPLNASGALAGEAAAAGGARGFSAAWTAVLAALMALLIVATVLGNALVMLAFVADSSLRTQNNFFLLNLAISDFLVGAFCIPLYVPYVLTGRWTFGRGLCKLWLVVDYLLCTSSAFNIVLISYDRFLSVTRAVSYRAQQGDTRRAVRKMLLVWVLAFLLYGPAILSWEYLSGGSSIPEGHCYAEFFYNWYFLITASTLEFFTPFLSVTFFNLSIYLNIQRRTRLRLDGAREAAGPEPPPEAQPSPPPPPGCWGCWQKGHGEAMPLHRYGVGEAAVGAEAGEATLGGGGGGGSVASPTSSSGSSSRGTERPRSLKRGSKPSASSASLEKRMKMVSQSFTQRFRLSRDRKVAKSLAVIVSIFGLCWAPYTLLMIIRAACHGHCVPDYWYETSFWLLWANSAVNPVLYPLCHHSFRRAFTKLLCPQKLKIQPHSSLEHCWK
Assay details: Displacement of [3H]N-alpha-methylhistamine from human H3 receptor expressed in HEK-293 cell membrane after 90 mins by liquid scintillation counting analysis
Assay type: cell membranes, HEK293
pKi: −log10 of the molar value.

[
  {
    "Input smiles": "Cc1nnc(C)n1-c1ccc(OCCCN2CCCCC2)cc1",
    "System under test": "Histamine H3 receptor (Homo sapiens, UniProt Q9Y5N1)",
    "pKi": 9.03
  },
  {
    "Input smiles": "Cc1nnc(-c2cccnc2)n1-c1ccc(OCCCN2CCCCC2)cc1",
    "System under test": "Histamine H3 receptor (Homo sapiens, UniProt Q9Y5N1)",
    "pKi": 9.62
  },
  {
    "Input smiles": "O=C1NC(c2ccccc2)(c2ccccc2)C(=O)N1Cc1ccc(OCCCN2CCCCC2)cc1",
    "System under test": "Histamine H3 receptor (Homo sapiens, UniProt Q9Y5N1)",
    "pKi": 7.12
  }
]

====

System under test: Histamine H4 receptor (Homo sapiens, UniProt Q9H3N8)
Sequence (Q9H3N8 whole entry): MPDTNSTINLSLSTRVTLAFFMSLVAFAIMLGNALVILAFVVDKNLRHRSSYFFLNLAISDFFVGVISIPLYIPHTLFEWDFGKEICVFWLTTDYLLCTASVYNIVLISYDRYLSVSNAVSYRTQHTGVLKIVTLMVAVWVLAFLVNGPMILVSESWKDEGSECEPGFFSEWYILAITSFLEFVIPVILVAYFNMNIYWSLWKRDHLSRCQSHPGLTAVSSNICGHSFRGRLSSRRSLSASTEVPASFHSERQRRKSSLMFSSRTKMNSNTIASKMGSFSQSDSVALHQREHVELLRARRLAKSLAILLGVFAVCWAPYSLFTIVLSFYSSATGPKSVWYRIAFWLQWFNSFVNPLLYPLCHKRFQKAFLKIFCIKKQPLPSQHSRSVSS
pKi: −log10 of the molar value.

[
  {
    "Input smiles": "Cc1nnc(C)n1-c1ccc(OCCCN2CCCCC2)cc1",
    "pKi": 4.69
  }
]

====

Notes on Ki obtained with Histamine H1 receptor (Homo sapiens, UniProt P35367).
Sequence (P35367 whole entry): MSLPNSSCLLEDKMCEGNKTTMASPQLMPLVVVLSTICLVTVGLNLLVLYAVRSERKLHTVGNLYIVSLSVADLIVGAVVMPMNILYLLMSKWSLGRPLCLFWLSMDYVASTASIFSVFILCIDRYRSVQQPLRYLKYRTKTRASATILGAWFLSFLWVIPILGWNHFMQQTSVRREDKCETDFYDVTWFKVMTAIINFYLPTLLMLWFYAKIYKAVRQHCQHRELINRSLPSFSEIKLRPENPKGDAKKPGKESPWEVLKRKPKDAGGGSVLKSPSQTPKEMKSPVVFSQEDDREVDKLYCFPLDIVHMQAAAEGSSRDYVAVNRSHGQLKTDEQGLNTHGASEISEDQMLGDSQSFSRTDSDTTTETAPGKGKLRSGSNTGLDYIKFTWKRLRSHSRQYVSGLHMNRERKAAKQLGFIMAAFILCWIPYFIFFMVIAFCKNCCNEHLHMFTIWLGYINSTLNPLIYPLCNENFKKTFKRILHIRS

[
  {
    "Compound": "Cc1nnc(-c2cccnc2)n1-c1ccc(OCCCN2CCCCC2)cc1",
    "Unit text": "µM",
    "Inequality symbol": "=",
    "Ki": 10.5
  },
  {
    "Compound": "O=C1NC(c2ccccc2)(c2ccccc2)C(=O)N1CCCN1CCCCC1",
    "Unit text": "µM",
    "Inequality symbol": "=",
    "Ki": 6.17
  },
  {
    "Compound": "S=C(NC1CCCCC1)N1CCC(c2cnc[nH]2)CC1 [THIOPERAMIDE]",
    "Unit text": "µM",
    "Inequality symbol": ">",
    "Ki": 10
  }
]
